Biological target: T1, PUF4 RNA-binding domain (Saccharomyces cerevisiae, UniProt P25339 537-888)
T1 sequence: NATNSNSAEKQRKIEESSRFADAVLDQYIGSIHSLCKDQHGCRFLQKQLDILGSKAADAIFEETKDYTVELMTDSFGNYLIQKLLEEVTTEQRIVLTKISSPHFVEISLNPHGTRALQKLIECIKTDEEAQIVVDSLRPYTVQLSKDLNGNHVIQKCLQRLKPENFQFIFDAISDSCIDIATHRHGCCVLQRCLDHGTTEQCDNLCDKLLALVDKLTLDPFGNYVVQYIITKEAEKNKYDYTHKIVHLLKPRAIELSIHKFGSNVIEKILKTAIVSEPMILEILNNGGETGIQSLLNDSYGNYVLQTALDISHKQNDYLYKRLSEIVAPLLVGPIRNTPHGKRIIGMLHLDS
Test: Mg; RNA-MaP; 20 mM Na-HEPES pH 7.4, 30 mM KOAc, 0.75 mM MgCl2, 0.1% Tween-20, 5% glycerol, 0.1 mg/mL BSA, 2 mM DTT; 25 C; 0.0125-409.6 nM protein
Details: tags: N-His6-TEV cleaved; C-SNAP kept, Cy3B-labelled; label: tethered on chip by stalled RNA polymerase
// reported pKd per item
Reminder that pKd means the negative base-10 logarithm of the concentration expressed in mol/L.

Which pKd value belongs to UCUCUUUGUAUUUUUUCUCUU (ssRNA) [Ib_S1_P4E.1_K4.1_C4.1_H4.1_A4.1_[A6T]_F4.1_[A9T]_T4.1] ?
7.68

Which pKd is reported for this binder? UCUCUUUGUAUAGUGUCUCUU (ssRNA) [Ib_S1_P4E.1_K4.1_C4.1_H4.1_A4.1_[T7G]_F4.1_[A9G]_T4.1]
7.89

Need pKd, item UCUCUUUGUAUUUUUCUCUCUU (ssRNA) [Ib_S1_P5E.1_K5.1_C5.1_H5.1_A5.1_[A7T]_F5.1_[A10C]_T5.1]
7.62

Every entry's value here was drawn from paper PMC9352680.
